Target: Human PTP1B (1-321) (Homo sapiens, UniProt P18031)
Construct: Human PTP1B (1-321) was cloned from a human cDNA library; made in house; host or cells: E. coli
Sequence (P18031 1-321): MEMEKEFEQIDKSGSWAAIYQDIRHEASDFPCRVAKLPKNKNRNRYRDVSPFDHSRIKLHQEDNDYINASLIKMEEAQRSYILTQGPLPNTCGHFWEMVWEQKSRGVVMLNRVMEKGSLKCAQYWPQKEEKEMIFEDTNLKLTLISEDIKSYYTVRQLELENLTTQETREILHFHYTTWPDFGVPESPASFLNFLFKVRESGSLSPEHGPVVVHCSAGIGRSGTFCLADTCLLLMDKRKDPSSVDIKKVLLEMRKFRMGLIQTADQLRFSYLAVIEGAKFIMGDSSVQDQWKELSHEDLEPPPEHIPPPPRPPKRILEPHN
Assay: In vitro inhibition of PTP1B (PTPase assay, Malachite Green / DiFMUP)
Assay type: biochemical
Conditions: read-out: IC50 (μM), PTP1B inhibitory activity
observation_type: IC50 (µM)

Nc1nc(N)c2c(cc(-c3ccc(Cl)s3)c3[nH]ccc32)n1 [Example 6]: 29.2
Nc1cccc(-c2cc3nc(N)nc(N)c3c3cc[nH]c23)c1 [Example 8]: 24.1

P = Nc1nc(N)c2c(cc(-c3cccc([N+](=O)[O-])c3)c3[nH]ccc32)n1 [Example 4]
Q = CCOc1cccc(-c2cc3nc(N)nc(N)c3c3cc[nH]c23)c1 [Example 2]
Request: Of P and Q , whose reported IC50 is numerically smaller? State the label of the item chosen.
Response: Q
(Q: 23.8 µM, P: 89.5 µM)
